Molecular target: CDK1/Cyclin B1 (Homo sapiens, UniProt P06493)
Sequence (P06493 whole entry): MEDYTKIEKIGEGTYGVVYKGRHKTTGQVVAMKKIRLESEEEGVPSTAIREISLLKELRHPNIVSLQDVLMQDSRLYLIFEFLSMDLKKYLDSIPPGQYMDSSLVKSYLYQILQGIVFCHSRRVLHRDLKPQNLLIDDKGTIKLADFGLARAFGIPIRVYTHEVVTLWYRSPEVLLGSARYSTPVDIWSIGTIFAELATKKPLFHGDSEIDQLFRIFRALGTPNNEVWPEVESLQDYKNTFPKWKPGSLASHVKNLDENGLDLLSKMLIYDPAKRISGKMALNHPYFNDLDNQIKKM
Sequence (P14635 whole entry partner): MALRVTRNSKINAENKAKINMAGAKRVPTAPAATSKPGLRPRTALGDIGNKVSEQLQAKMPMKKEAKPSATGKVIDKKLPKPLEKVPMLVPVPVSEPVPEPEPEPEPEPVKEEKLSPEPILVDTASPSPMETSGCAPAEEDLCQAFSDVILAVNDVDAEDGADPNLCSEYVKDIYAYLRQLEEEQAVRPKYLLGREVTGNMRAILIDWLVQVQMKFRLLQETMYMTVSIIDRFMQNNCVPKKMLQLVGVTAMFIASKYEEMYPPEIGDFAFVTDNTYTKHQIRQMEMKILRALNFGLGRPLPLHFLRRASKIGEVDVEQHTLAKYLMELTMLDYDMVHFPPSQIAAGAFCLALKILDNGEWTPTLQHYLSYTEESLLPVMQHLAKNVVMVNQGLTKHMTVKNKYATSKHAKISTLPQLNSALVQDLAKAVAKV
Assay: CDK1/Cyclin B1 TR-FRET biochemical assay, 0.015 mM ATP
Conditions: 0.15 μM Rb (Ser780)-biotin substrate, 120 min reaction, Table 1
Procedure: Compounds disclosed herein were tested for inhibition of CDK2/Cyclin E1 or CDK1/Cyclin B1 kinase in an assay based on the time-resolved fluorescence-resonance energy transfer (TR-FRET) methodology. […] Plates were incubated at room temperature for 60 minutes, and the TR-FRET signals (ex337 nm, em665 nm/620 nm) were recorded on a PHERAstar FSX plate reader (BMG Labtech). […]
endpointName: IC50 (µM)

P. O=c1ccsn1[C@H]1CC[C@@H](c2cc(Nc3ccc4c(c3F)CNS4(=O)=O)n[nH]2)C1 (relative stereo)
Q. CC(C)c1cnn([C@H]2CC[C@@H](c3cc(Nc4ccc5c(c4F)CNS5(=O)=O)n[nH]3)C2)c(=O)c1 (relative stereo)
R. CC(C)c1ccnnc1O[C@@H]1CC[C@H](c2cc(Nc3ccc4c(c3F)CNS4(=O)=O)n[nH]2)C1 (relative stereo)
Query: Descending sort on IC50 required. Dear reader, please state the labels in the requested order.
Reply: P, Q, R

----------
Molecular target: CDK1/Cyclin B1 (Homo sapiens, UniProt P06493)
Assay: CDK1/Cyclin B1 TR-FRET biochemical assay, 1 mM ATP
Conditions: 0.15 μM Rb (Ser780)-biotin substrate, 90 min reaction, Table 2
Experimental: Compounds disclosed herein were tested for inhibition of CDK2/Cyclin E1 or CDK1/Cyclin B kinase in an assay based on the time-resolved fluorescence-resonance energy transfer (TR-FRET) methodology. […] Plates were incubated at room temperature for 60 minutes, and the TR-FRET signals (ex337 nm, em665 nm/620 nm) were recorded on a PHERAstar FSX plate reader (BMG Labtech). […]
pIC50: −log10 of the molar value.
endpointName: pIC50

CC(C)(C)c1cnc(C2CCC(c3cc(Nc4ccc5c(c4)CN=S5(C)=O)n[nH]3)C2)o1 (single isomer, unassigned) [Example 169b]    5.63

1. CC(C)c1ccnc(C2CCC(c3cc(Nc4ccc5c(c4F)CS(=O)(=O)N5)n[nH]3)C2)n1 (stereo not drawn)
2. CC(C)c1cnc(C2CCC(c3cc(Nc4ccc5c(c4F)CNS5(=O)=O)n[nH]3)C2)o1 (single isomer, unassigned) [Example 109a]
3. CC(C)(C)c1cnc(C2CCC(c3cc(Nc4ccc5c(c4F)CCS(=O)(=O)N5)n[nH]3)C2)o1 (stereo not drawn)
4. CC(C)c1cnc(C2CCC(c3cc(Nc4ccc5c(c4F)CN=S5(C)=O)n[nH]3)C2)o1 (stereo not drawn)
Query: Please put the entries in order of rising pIC50. Dear reader, please state the labels in the requested order.
Reply: 2, 4, 3, 1
(2: 5.54, 4: 5.84, 3: 6.69, 1: 6.90)

----------
molecular target: CDK2/Cyclin E1 (Homo sapiens, UniProt P24941); test: CDK2/Cyclin E1 TR-FRET biochemical assay, 0.060 mM ATP; details: 0.15 μM Rb (Ser780)-biotin substrate, 120 min reaction, Table 1
pIC50: −log10 of the molar value.
endpointName: pIC50

C=C(C)c1cnn([C@H]2CC[C@@H](c3cc(Nc4ccc5c(c4F)CNS5(=O)=O)n[nH]3)C2)c(=O)c1 (relative stereo) [Example 32]    7.32
O=S1(=O)NCc2c1ccc(Nc1cc([C@H]3CC[C@@H](Oc4ccn[nH]4)C3)[nH]n1)c2F (relative stereo) [Example 62]    7.62
CC(C)(C)c1cn[nH]c1O[C@@H]1CC[C@H](c2cc(Nc3ccc4c(c3F)CNS4(=O)=O)n[nH]2)C1 (relative stereo) [Example 61]    9.00
O=S1(=O)NCc2c1ccc(Nc1cc(C3CCC(c4ncc(CO)o4)C3)[nH]n1)c2F (stereo not shown) [Example 93]    7.15
CC(C)(C)c1cc(O[C@@H]2CC[C@H](c3cc(Nc4ccc5c(c4F)CNS5(=O)=O)n[nH]3)C2)[nH]n1 (relative stereo) [Example 71]    6.41

a. CC(C)(C)c1cnc(C2CCC(c3cc(Nc4ccc5c(c4F)CNS5(=O)=O)n[nH]3)C2)o1 (single isomer, unassigned) [Example 91b]
b. CC(C)c1cn[nH]c1O[C@@H]1CC[C@H](c2cc(Nc3ccc4c(c3F)CNS4(=O)=O)n[nH]2)C1 (relative stereo) [Example 60]
c. O=c1c(C2CC2)ccnn1[C@H]1CC[C@@H](c2cc(Nc3ccc4c(c3F)CNS4(=O)=O)n[nH]2)C1 (relative stereo) [Example 28]
d. Cc1cc(O[C@@H]2CC[C@H](c3cc(Nc4ccc5c(c4F)CNS5(=O)=O)n[nH]3)C2)[nH]n1 (relative stereo) [Example 65]
Query: Please put the entries in order of rising pIC50. Dear reader, please state the labels in the requested order.
Reply: c, d, a, b

I. CC(C)(C)c1cnc([C@@H]2CC[C@H](c3cc(Nc4ccc5c(c4F)CS(=O)(=O)N5)n[nH]3)C2)o1 (relative stereo) [Example 145]
II. CC(C)c1n[nH]cc1O[C@@H]1CC[C@H](c2cc(Nc3ccc4c(c3F)CNS4(=O)=O)n[nH]2)C1 (relative stereo) [Example 73]
Query: Of I and II , whose reported pIC50 is numerically smaller? Please respond with the label that marks your chosen entry.
Reply: II

A. CC(C)N1CC(=O)N([C@H]2CC[C@@H](c3cc(Nc4ccc5c(c4F)CNS5(=O)=O)n[nH]3)C2)C1=O (relative stereo) [Example 82]
B. CCc1ccnnc1O[C@@H]1CC[C@H](c2cc(Nc3ccc4c(c3F)CNS4(=O)=O)n[nH]2)C1 (relative stereo) [Example 25]
Query: Of A and B , whose reported pIC50 is numerically smaller? Please respond with the label that marks your chosen entry.
Reply: A
